Just for reference, the supplement of paper PMC4894684 is where these values come from.

# Test system: HFF
# PROTOCOL NOTES: uninfected host cell viability relative to vehicle control; higher = less host cell toxicity
# TEST CONTEXT: 5 µM; 72 h; oxygen 21 %
Counter-ions that a name gives are not always drawn. Out of some 1,000 compounds screened, about 15 (2%) showed an effect of 50% or more. The list comes from a sample in which strong results are over-represented; it also holds close analogues and randomly drawn compounds.
Could you please report measured uninfected host cell viability for the items listed next?
Report only the number, with the unit % understood.

Could you share which uninfected host cell viability value was measured for CCS(=O)(=O)N(C)[C@H]1c2cc(C#N)ccc2OC(C)(C)[C@@H]1O (racemic) [Chromanol 293B] ?
91.3

Query O=C1CC2(CCCC2)CC(=O)N1CCNCC1COc2ccccc2O1 (centres undefined) next
85.6

Query COc1ccc(OC)c2c(=S)c3ccccc3[nH]c12 next
76.9

Query Cc1cc(NC(=O)Nc2ccc(N(C)C)cc2)c2cc(F)cc(F)c2n1 next
85.9

Query CN1CC(=O)N=C1NC(=O)Nc1cccc(Cl)c1 next
80.9

Query CNc1cc(OC)c(C(=O)NC2CCN(Cc3ccccc3)C2C)cc1Cl (centres undefined) [Nemonapride] next
86.9

Query CC(/C=C/c1cccc(Oc2ccc(F)cc2)c1)N(O)C(N)=O (centres undefined) next
82.8

Query Clc1cccc(Nc2nnc(-c3ccccc3)c3ccccc23)c1 next
85.8

Query CCCCN1CCC(CCC(=O)c2cc(Cl)c(N)cc2OC)CC1 next
85.2

Query CC[C@]1(O)C[C@H]2CN(CCc3c([nH]c4ccccc34)[C@@](C(=O)OC)(c3cc4c(cc3OC)N(C=O)[C@H]3[C@@](O)(C(=O)OC)[C@H](OC(C)=O)[C@]5(CC)C=CCN6CC[C@]43[C@@H]65)C2)C1 [Vincristine sulfate] next
68

Query COC(=O)C1=C(C)NC(C)=C([N+](=O)[O-])[C@H]1c1ccccc1C(F)(F)F next
68.2

Query COc1cc2ncn(-c3cc(OCc4ccccc4C(F)(F)F)c(C(N)=O)s3)c2cc1OC next
83.8

Query C[C@H](NC[C@H](O)CP(=O)(O)CC1CCCCC1)c1ccc(Cl)c(Cl)c1 next
84.8

Query NC(C(=O)O)c1ccc(C(=O)O)c(C(=O)O)c1 (centres undefined) next
83.7

Query CNC(=O)[C@@H](Cc1ccccc1)N(C)C(=O)[C@@H](Cc1ccc2ccccc2c1)N(C)C(=O)/C=C/CC(C)(C)N next
79.1

Query CN(C)C(=O)C(=O)c1cn(C)c2cc(Cl)c(C(=O)N3CCC(Cc4ccc(F)cc4)CC3)cc12 next
88.4

Query CCS(=O)(=O)N1CCC[C@@H]2CN3CCc4cc(OC)ccc4[C@@H]3C[C@@H]21 next
85.4

Query O=C(O)C=C1CCCc2ccccc2C1O (centres undefined) next
83.3

Query OC(c1ccccc1)C1CCN(CCc2ccccc2)CC1 (centres undefined) next
101
